- System name: Sodium-dependent serotonin transporter (Homo sapiens)
- Sequence (P31645 whole entry): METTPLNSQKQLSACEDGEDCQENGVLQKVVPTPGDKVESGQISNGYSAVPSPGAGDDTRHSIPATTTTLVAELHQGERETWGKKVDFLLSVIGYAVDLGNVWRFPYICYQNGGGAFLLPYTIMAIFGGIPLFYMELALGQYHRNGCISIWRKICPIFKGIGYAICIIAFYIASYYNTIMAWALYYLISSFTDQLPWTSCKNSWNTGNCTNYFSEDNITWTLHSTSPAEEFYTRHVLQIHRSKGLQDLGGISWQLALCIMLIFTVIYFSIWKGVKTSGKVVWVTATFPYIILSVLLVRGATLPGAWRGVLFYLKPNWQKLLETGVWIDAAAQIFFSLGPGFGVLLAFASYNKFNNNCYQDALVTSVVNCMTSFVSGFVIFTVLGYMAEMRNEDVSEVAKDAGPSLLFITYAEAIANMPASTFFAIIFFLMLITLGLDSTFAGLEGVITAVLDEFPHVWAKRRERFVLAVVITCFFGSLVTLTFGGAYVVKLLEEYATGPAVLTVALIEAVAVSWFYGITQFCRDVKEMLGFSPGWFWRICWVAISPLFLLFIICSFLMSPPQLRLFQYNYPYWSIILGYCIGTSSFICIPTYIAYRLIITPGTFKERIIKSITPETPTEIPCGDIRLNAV
- Assay procedure: Displacement of [125I]beta-CIT from human SERT in human platelet membrane in presence of 5 uM ibogaine
- Assay type: cell membranes
Metric name: Kd (nM)

> print(dat)
                         compound.structure                               system.name  numeric.result
1  COC(=O)[C@H]1[C@@H](c2ccc(I)cc2)C[C@@H]2CC[C@H]1N2C  Sodium-dependent serotonin transporter (Homo sapiens)            2.82
